ASSAY_NAME: qHTS assay for identifying genotoxic compounds that show differential cytotoxicity against isogenic chicken DT40 cell lines with known DNA damage response pathways - Rad54/Ku70 mutant cell line (AID 743015); also: nearly all actives have a fitted effect of over 60% in size
ASSAY_CONTEXT: DT40 Rad54/Ku70 mutant viability, CellTiter-Glo, 40 h; series mostly up to 66.8 µM
Inconclusive results are not listed. Calls of active or inactive are those of the source. Calls follow the shape of the dose curve; as a rule, active = well fitted cell-killing curve with a large enough effect in the repeat runs; inconclusive = weak or mixed curves; inactive = no such curve, though single readings can be large or run the other way.
Pick one: true for active, false for inactive

Problem: For this compound, state the assay outcome: `Cc1cc(C)c(C2=C(OC(=O)CC(C)(C)C)C3(CCCC3)OC2=O)c(C)c1`
Solution: false

Problem: For this compound, state the assay outcome: `[Hg+2].[I-].[I-]`
Solution: true

Problem: For this compound, state the assay outcome: `CC(C)Oc1cccc(NC(=O)c2ccccc2C(F)(F)F)c1`
Solution: true

Problem: For this compound, state the assay outcome: `CC(C)(C)OO`
Solution: false

###

ASSAY_NAME: qHTS assay to identify small molecule antagonists of the androgen receptor (AR) signaling pathway using the MDA cell line - cell viability counter screen (AID 743041; also: nearly all actives have a fitted effect of over 45% in size; also: potency is read from the fitted curve at half-maximal effect)
ASSAY_CONTEXT: MDA-kb2 viability, CellTiter-Fluor, 16 h, cells co-treated with R1881 androgen agonist; series mostly up to 70.3 µM
Inconclusive results are not listed. Calls of active or inactive are those of the source. Calls come from the whole dose curve; as a rule, active = well fitted cell-killing curve with a large enough effect in the repeat runs; inconclusive = weak or mixed curves, or effect the other way; inactive = flat fitted curve, though single readings scatter.
ASSAY_READOUT: Potency

These recorded examples may help you get a feel for the data.
{"columns": ["COMPOUND", "ASSAY_READOUT", "ENDPOINT_VALUE"],
 "data": [
  ["CCCN(CCC)c1c([N+](=O)[O-])cc(S(N)(=O)=O)cc1[N+](=O)[O-]", "Potency", "51.8 µM (active)"],
  ["CCCCN(CCCC)C(=S)[S-].CCCCN(CCCC)C(=S)[S-].[Zn+2]", "Potency", "inactive"],
  ["COC(=O)N(C(=O)N1CO[C@@]2(C(=O)OC)Cc3cc(Cl)ccc3C2=N1)c1ccc(OC(F)(F)F)cc1", "Potency", "inactive"],
  ["CCOc1cc(C(C)(C)C)ccc1C1COC(c2c(F)cccc2F)=N1 (stereo unspecified)", "Potency", "inactive"],
  ["O=c1ssc(Cl)c1Cl", "Potency", "inactive"],
  ["C[C@]12CC[C@H]3[C@@H](CCC4=CC(=O)CC[C@@]43C)[C@@H]1CC[C@@H]2O", "Potency", "inactive"]
]}

For every listed record, write down its Potency.
1. BrC(Br)Br
2. N#CNC#N
3. O=C(NC(=O)c1c(F)cccc1F)Nc1cc(Cl)c(OC(F)(F)C(F)F)c(Cl)c1
4. CCOC(=O)CC(=O)CCl

Solution:
inactive
inactive
inactive
inactive

For every listed record, write down its Potency.
1. O=C/C(Cl)=C(/Cl)C(=O)O
2. COC12CC[C@@]3(C[C@@H]1C(C)(O)C(C)(C)C)[C@H]1Cc4ccc(O)c5c4[C@@]3(CCN1CC1CC1)[C@H]2O5 (stereo partly specified)
3. Oc1c(Br)c(Br)c(Br)c(Br)c1Br

Solution:
inactive
60.7 µM (active)
inactive

For every listed record, write down its Potency.
1. O=C(CCl)Nc1ccccc1
2. [Hg+2].[I-].[I-]
3. N#C/C=C/C#N
4. O=S(=O)(c1ccc(Cl)cc1)c1ccc(Cl)cc1

Solution:
1. 54.5 µM (active)
2. 54.5 µM (active)
3. inactive
4. inactive

For every listed record, write down its Potency.
1. N#CC(Cl)Cl
2. COP(=S)(OC)Oc1cc(Cl)c(Br)cc1Cl
3. O=C(O)c1cc[c]([Hg][Cl])cc1
4. COc1ccc(OC)c(CC(C)N)c1 (stereo unspecified)
5. O=C(O)COc1nc(Cl)c(Cl)cc1Cl
6. C[C@H]1O[C@@H](O[C@H]2[C@@H](O)C[C@H](O[C@H]3[C@@H](O)C[C@H](O[C@H]4CC[C@@]5(C)[C@H](CC[C@@H]6[C@@H]5CC[C@]5(C)[C@@H](C7=CC(=O)OC7)CC[C@]65O)C4)O[C@@H]3C)O[C@@H]2C)C[C@H](O)[C@@H]1O
7. C[C@@H]1O[C@@H](O[C@@H]2C=C3CC[C@@H]4[C@H](CC[C@]5(C)[C@@H](c6ccc(=O)oc6)CC[C@]45O)[C@@]3(C)CC2)[C@H](O)[C@H](O)[C@H]1O

Solution:
["inactive", "inactive", "inactive", "inactive", "inactive", "inactive", "inactive"]

For every listed record, write down its Potency.
1. CCN(CC)c1c([N+](=O)[O-])cc(C(F)(F)F)c(N)c1[N+](=O)[O-]
2. ClC1=C(Cl)C2(Cl)C3C(Cl)C=CC3C1(Cl)C2(Cl)Cl (stereo unspecified)
3. CCCOCC(=Nc1ccc(Cl)cc1C(F)(F)F)n1ccnc1
4. CC(C)[C@H](C(=O)OC(C#N)c1cccc(Oc2ccccc2)c1)c1ccc(OC(F)F)cc1 (stereo partly specified)
5. CCc1nn(C)c(C(=O)NCc2ccc(C(C)(C)C)cc2)c1Cl
6. S=C(SSC(=S)N1CCCCC1)N1CCCCC1
7. Oc1ccc2ccc3cccc4ccc1c2c34

Solution:
inactive
inactive
61.1 µM (active)
inactive
0.0863 µM (active)
1.06 µM (active)
inactive

For every listed record, write down its Potency.
1. Clc1ccc(C(c2ccc(Cl)cc2)C(Cl)(Cl)Cl)cc1
2. O=c1[nH]c2ccccc2n1C1CCN(CCCC(c2ccc(F)cc2)c2ccc(F)cc2)CC1

Solution:
1. inactive
2. inactive

For every listed record, write down its Potency.
1. CNC(C)Cc1ccc2c(c1)OCO2 (stereo unspecified)
2. CC(C)(C)c1ccc(CSc2cnn(C(C)(C)C)c(=O)c2Cl)cc1
3. Nc1ccccc1C(=O)OC/C=C/c1ccccc1
4. CN(C)C1CSSSC1
5. O=[N+]([O-])c1ccc(Oc2ccc(C(F)(F)F)cc2[N+](=O)[O-])cc1
6. O=C(CBr)c1ccc(O)cc1
7. ClC1=C(Cl)C2(Cl)C3C(Cl)C(Cl)CC3C1(Cl)C2(Cl)Cl (stereo unspecified)
8. CCCCCCCCCCCCCN1CC(C)OC(C)C1 (stereo unspecified)

Solution:
inactive
0.0306 µM (active)
inactive
inactive
inactive
inactive
inactive
inactive

###

ASSAY_NAME: qHTS assay to identify small molecule that activate the aryl hydrocarbon receptor (AhR) signaling pathway - cell viability counter screen (AID 743086); also: nearly all actives have a fitted effect of over 45% in size
ASSAY_CONTEXT: HepG2-AhR-luc viability, CellTiter-Fluor, 24 h; series mostly up to 70.3 µM
Inconclusive results are not listed. The source made the active and inactive calls. Calls follow the shape of the dose curve; as a rule, active = well fitted cell-killing curve with a large enough effect in the repeat runs; inconclusive = weak or mixed curves, or effect the other way; inactive = flat fitted curve, though single readings scatter.
Pick one: label 1 = active, label 0 = inactive

For orientation, consider the following solved cases.
{"columns": ["COMPOUND", "CLASS_LABEL"],
 "data": [
  ["Clc1ccc(CCC(Cn2ccnc2)Sc2c(Cl)cccc2Cl)cc1 (centres undefined)", "label 0"],
  ["CCOC(=O)CC(=O)CCl", "label 0"],
  ["O=C(NC(=O)c1c(F)cccc1F)Nc1cc(Cl)c(OC(F)(F)C(F)F)c(Cl)c1", "label 0"],
  ["ClC(Cl)=C(Cl)Cl", "label 0"],
  ["O=c1[nH]c2ccccc2n1C1CCN(CCCC(c2ccc(F)cc2)c2ccc(F)cc2)CC1", "label 0"],
  ["N#CCCC(Br)(C#N)CBr (centres undefined)", "label 0"],
  ["BrC(Br)Br", "label 0"],
  ["O=[N+]([O-])c1c2ccccc2cc2ccccc12", "label 0"],
  ["C[C@]12CC[C@@H]3c4ccc(OC(=O)N(CCCl)CCCl)cc4CC[C@H]3[C@@H]1CC[C@@H]2O", "label 0"],
  ["c1ccc2cc3c(cc2c1)-c1cccc2cccc-3c12", "label 0"]
]}

Problem: For this compound, state the assay outcome: `C=CC(=O)OCCCCOC(=O)C=C`
Solution: label 0

Problem: For this compound, state the assay outcome: `O=c1ssc(Cl)c1Cl`
Solution: label 0

Problem: For this compound, state the assay outcome: `[Cl][Sb]([Cl])[Cl]`
Solution: label 0

Problem: For this compound, state the assay outcome: `Cc1cc(SCc2sc(-c3ccc(C(F)(F)F)c(F)c3)nc2C)ccc1OCC(=O)O`
Solution: label 0

Problem: For this compound, state the assay outcome: `CC(C)N1C(=O)N(c2ccccc2)CSC1=NC(C)(C)C`
Solution: label 0

Problem: For this compound, state the assay outcome: CC(C)CC(C)Nc1ccc(Nc2ccccc2)cc1 (centres undefined)
Solution: label 1

Problem: For this compound, state the assay outcome: `CCC[CH2][Sn]([CH2]CCC)([CH2]CCC)[O]C(=O)c1ccccc1`
Solution: label 1

Problem: For this compound, state the assay outcome: CC1(c2ccc(Oc3ccccc3)cc2)OC(=O)N(Nc2ccccc2)C1=O (centres undefined)
Solution: label 0

Problem: For this compound, state the assay outcome: `O=C(O)c1cc[c]([Hg][Cl])cc1`
Solution: label 0
